Target: T1, ZFP SBS#1302 (synthetic)
T1 chain: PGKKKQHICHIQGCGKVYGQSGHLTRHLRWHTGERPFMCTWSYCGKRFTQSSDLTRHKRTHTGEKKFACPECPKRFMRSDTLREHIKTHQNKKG
Assay: EMSA
Conditions: tags: MBP fusion
Readout name: Kd

[[record]]
binder = "CCGGCTGGA (dsDNA) DNA 1: CCGGCTGGA DNA 2: TCCAGCCGG"
endpoint_value = "0.05 nM"

